In this section, each of the compounds is paired with its reported IC50.
- target-system: aminopeptidase A (AP-A) (Homo sapiens, UniProt Q07075)
- Construct: an AP-A solution which was obtained by ammonium sulfate fractionation according to the method of Nagatsu et al; from tissue
- Sequence (Q07075 whole entry): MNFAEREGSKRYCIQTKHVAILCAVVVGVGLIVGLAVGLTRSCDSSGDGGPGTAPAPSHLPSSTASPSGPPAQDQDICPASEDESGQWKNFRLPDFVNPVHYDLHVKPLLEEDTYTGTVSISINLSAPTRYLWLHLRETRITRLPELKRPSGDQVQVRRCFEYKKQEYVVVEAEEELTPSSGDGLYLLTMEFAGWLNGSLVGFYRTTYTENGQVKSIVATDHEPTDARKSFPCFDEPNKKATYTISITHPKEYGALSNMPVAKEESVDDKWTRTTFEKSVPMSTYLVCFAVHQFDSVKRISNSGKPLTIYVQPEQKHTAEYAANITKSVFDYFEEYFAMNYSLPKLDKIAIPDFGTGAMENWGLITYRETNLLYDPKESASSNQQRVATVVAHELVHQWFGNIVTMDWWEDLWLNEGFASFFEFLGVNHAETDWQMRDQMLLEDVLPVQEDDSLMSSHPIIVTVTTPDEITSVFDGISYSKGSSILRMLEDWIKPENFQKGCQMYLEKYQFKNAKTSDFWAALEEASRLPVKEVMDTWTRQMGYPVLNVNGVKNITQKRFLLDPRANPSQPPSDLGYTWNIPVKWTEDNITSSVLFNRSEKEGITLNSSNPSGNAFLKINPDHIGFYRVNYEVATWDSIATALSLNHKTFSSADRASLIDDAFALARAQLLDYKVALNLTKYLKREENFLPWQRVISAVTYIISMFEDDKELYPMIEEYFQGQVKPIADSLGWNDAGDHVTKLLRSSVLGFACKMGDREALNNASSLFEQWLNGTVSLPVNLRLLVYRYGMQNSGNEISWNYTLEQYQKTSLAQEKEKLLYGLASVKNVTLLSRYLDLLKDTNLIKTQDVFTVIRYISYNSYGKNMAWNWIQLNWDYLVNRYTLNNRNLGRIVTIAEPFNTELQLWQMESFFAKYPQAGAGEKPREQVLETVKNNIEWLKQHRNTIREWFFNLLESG
- assay-remarks: AP-A (E.C. 3,4,11,7) inhibition assay
- Type: biochemical
- condition-description: L-α-glutamyl-β-naphthylamide substrate, pH 7.0, 37° C., 30 minutes; read-out: IC/50 AP--A: amount of the peptide to inhibit the intact activity of the target enzyme by 50% (converted)
- Experimental: That is, 0.25 ml of 2 mM L-α-glutamyl-β-naphthylamide, 0.54 ml of 0.1 M Tris-HCl buffer, pH 7.0, 0.01 ml of 0.1 M calcium chloride and 0.1 ml of a test sample in water were mixed and kept at 37° C. for 3 minutes. […] The absorbance of the test solution (a) was measured at 530 nm. The control solution without the test sample was used as the blank test (absorbance (b)). The inhibition percentage on aminopeptidase A was calculated as [(b-a)/b]x100.
reported-metric: IC50 (µM)

# chemical-string, result
rows = [
    ("CC(C)C[C@@H](N)[C@H](O)C(=O)N[C@H](C(=O)N[C@H](C(=O)N[C@@H](CCCNC(=N)N)C(=O)O)C(C)C)C(C)C", 26.2),
    ("CC(C)C[C@@H](N)[C@H](O)C(=O)N[C@H](C(=O)N[C@H](C(=O)N[C@H](C(=O)O)[C@@H](C)O)C(C)C)C(C)C", 5.86),
    ("CC(C)C[C@@H](N)[C@H](O)C(=O)N[C@H](C(=O)N[C@H](C(=O)N[C@@H](Cc1ccccc1)C(=O)O)C(C)C)C(C)C", 14.2),
    ("CC(C)C[C@@H](N)[C@H](O)C(=O)N[C@H](C(=O)N[C@H](C(=O)N[C@@H](CC(=O)O)C(=O)O)[C@@H](C)O)C(C)C", 2.1),
]

====

- target-system: aminopeptidase A (AP-A) (Homo sapiens)
- Construct: an AP-A solution which was obtained by ammonium sulfate fractionation according to the method of Nagatsu et al; from tissue
- assay-remarks: AP-A (E.C. 3,4,11,7) inhibition assay
- Assay type: biochemical
- condition-description: L-α-glutamyl-β-naphthylamide substrate, pH 7.0, 37° C., 30 minutes; read-out: IC/50 AP--A: amount of the peptide to inhibit the intact activity of the target enzyme by 50% (converted)
Where a SMILES comes first, the peptide text is derived from it. The star is where a group is joined. X1 = CC(C)C[C@@H](N)[C@H](O)C(=O)*
In this section, each of the molecules is paired with its reported IC50.
reported-metric: IC50 (µM)

# molecule, reading-qualifier, result
records = [
    ("CC(C)C[C@H](NC(=O)[C@@H](NC(=O)[C@@H](O)[C@H](N)CC(C)C)C(C)C)C(=O)N[C@@H](CC(=O)O)C(=O)O", "=", 0.614),
    ("CC(C)C[C@@H](N)[C@H](O)C(=O)N[C@H](C(=O)N[C@H](C(=O)N[C@@H](Cc1ccccc1)C(=O)O)[C@@H](C)O)C(C)C", "=", 1.18),
    ("CC(C)C[C@@H](N)[C@H](O)C(=O)N[C@@H](CC(=O)O)C(=O)O", ">", 905),
    ("CC(C)C[C@@H](N)[C@H](O)C(=O)N[C@@H](CCCCN)C(=O)N[C@H](C(=O)N[C@H](C(=O)O)C(C)C)C(C)C", "=", 3.9),
    ("CC(C)C[C@@H](N)[C@H](O)C(=O)N[C@H](C(=O)N[C@H](C(=O)N1CCC[C@H]1C(=O)O)C(C)C)C(C)C", "=", 76.7),
    ("CC(C)C[C@@H](N)[C@H](O)C(=O)N[C@@H](CCC(=O)O)C(=O)N[C@H](C(=O)N[C@@H](CC(=O)O)C(=O)O)C(C)C", "=", 3.96),
    ("CC(C)C[C@@H](N)[C@H](O)C(=O)N[C@H](C(=O)N[C@H](C(=O)N[C@H](C(=O)N[C@@H](CC(=O)O)C(=O)O)C(C)C)C(C)C)C(C)C [X--Val--Val--Val--Asp] (X1-VVVD-OH)", "=", 31.4),
    ("CC(C)C[C@@H](N)[C@H](O)C(=O)N[C@@H](C)C(=O)N[C@@H](C)C(=O)N[C@@H](CC(=O)O)C(=O)O", ">", 597),
    ("CC(C)C[C@@H](N)[C@H](O)C(=O)N[C@H](C(=O)O)C(C)C", "=", 864),
    ("CC(C)C[C@@H](N)[C@H](O)C(=O)N[C@H](C(=O)N[C@@H](CC(=O)O)C(=O)O)C(C)C", "=", 32),
    ("CC(C)C[C@@H](N)[C@H](O)C(=O)N[C@H](C(=O)N[C@@H](CCCCN)C(=O)N[C@@H](CC(=O)O)C(=O)O)C(C)C", "=", 19.9),
    ("CC(C)C[C@@H](N)[C@H](O)C(=O)N[C@H](C(=O)N[C@H](C(=O)O)C(C)C)C(C)C", "=", 10),
]
